Each recorded value in this set is attributed to patent US20260297042A1.

# Target Of Assay: WEE1 (Homo sapiens)
# Construct: purchased Thermo Fisher PR7373A
# Sequence (P30291 whole entry): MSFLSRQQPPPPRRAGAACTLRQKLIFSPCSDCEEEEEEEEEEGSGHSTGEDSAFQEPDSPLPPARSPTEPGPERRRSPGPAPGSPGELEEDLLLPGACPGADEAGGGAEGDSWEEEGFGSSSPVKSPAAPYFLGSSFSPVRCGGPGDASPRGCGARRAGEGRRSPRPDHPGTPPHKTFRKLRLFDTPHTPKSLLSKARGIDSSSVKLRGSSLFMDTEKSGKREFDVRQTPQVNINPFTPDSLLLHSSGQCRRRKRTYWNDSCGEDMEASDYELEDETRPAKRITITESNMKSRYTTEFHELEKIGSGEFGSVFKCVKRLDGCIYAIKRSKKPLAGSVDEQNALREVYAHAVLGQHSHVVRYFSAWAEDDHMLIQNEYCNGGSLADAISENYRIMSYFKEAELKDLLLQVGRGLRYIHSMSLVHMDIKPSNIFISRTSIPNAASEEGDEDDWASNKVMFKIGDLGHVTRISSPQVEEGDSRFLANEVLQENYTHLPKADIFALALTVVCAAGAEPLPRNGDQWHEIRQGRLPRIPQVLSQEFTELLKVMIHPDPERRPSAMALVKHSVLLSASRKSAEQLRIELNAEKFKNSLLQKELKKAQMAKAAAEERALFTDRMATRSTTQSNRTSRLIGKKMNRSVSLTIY
# Assay Method Text: Selectivity versus WEE1 assay (ADP-Glo enzymatic assay)
# Format: biochemical
# Experimental Setup: fold difference in selectivity for PKMYT1 over WEE1; banded; ">N" = at least in this band but could be higher
Measurement Label: PKMYT1 vs. WEE1 selectivity

1. Cn1ccc(Nc2ncc(C(=O)Nc3c(F)ccc(O)c3F)s2)n1 [BAA-249]: X (100-<1000 fold)
2. CCOC(=O)c1cc(Nc2ncc(C(=O)Nc3c(C)ccc(O)c3C)s2)nn1C [BAA-024]: X (100-<1000 fold)
3. Cc1ccc(O)c(C)c1NC(=O)c1cnc(Nc2ccn(CC(=O)N3CC4CCC(C3)N4)n2)s1 [BAA-230]: X (100-<1000 fold)

====

# Test system: OVCAR 3 cells
# Assay Method Text: Cancer cell line proliferation assay, ATP-based cell viability (Cell Titre Glow), OVCAR 3 (CCNE1-amplified)
# Experimental Setup: KYSE30 (normal CCNE1) GI50 vs. OVCAR 3 (CCNE1-amplified) GI50
Measurement Label: Selectivity ratio KYSE30 Gl50 vs. OVCAR3 Gl50

1) Cc1ccc(O)c(C)c1NC(=O)c1cnc(Nc2cccc(N3CCC(N)CC3)n2)s1 [BAA-274]: Y (>20 fold)
2) Cc1ccc(O)c(C)c1NC(=O)c1cnc(Nc2nn(CC(F)F)cc2Cl)s1 [BAA-569]: Y (>20 fold)
3) CCN(CC)C(=O)C(C)n1cc(C)c(Nc2ncc(C(=O)Nc3c(C)ccc(O)c3C)s2)n1 (stereo not drawn) [BAA-510]: Y (>20 fold)
4) Cc1ccc(O)c(C)c1NC(=O)c1cnc(Nc2cccc(NC(=O)C(C)(C)C)n2)s1 [BAA-339]: Y (>20 fold)
5) Cc1cn(CC(C)O)nc1Nc1ncc(C(=O)Nc2c(C)ccc(O)c2C)s1 (stereo not drawn) [BAA-499]: Y (>20 fold)

====

# Target Of Assay: WEE1 (Homo sapiens)
# Construct: purchased Thermo Fisher PR7373A
# Assay Method Text: Selectivity versus WEE1 assay (ADP-Glo enzymatic assay)
# Assay type: biochemical
# Experimental Setup: fold difference in selectivity for PKMYT1 over WEE1; banded; ">N" = at least in this band but could be higher
Measurement Label: PKMYT1 vs. WEE1 selectivity

1. Cc1ccc(O)c(C)c1NC(=O)c1cnc(Nc2ccn(CC(=O)N3CCC(F)(F)CC3)n2)s1: Y (1000-5000 fold)
2. CCCNC(=O)Cn1ccc(Nc2ncc(C(=O)Nc3c(C)ccc(O)c3C)s2)n1: Y (1000-5000 fold)
3. Cc1nc(CNc2ncc(C(=O)Nc3c(C)ccc(O)c3C)s2)no1: W (10-<100 fold)
4. Cc1ccc(O)c(C)c1NC(=O)c1cnc(Nc2ccn(CC(=O)N(C)C)n2)s1: Y (1000-5000 fold)
5. Cc1ccc(O)c(C)c1NC(=O)c1cnc(Nc2nn(C)c3c2CCCC3)s1: W (10-<100 fold)
6. Cc1cn(CC(=O)N2CCC2)nc1Nc1ncc(C(=O)Nc2c(C)ccc(O)c2C)s1: X (100-<1000 fold)
7. Cc1cn(Cc2ncco2)nc1Nc1ncc(C(=O)Nc2c(C)ccc(O)c2C)s1: X (100-<1000 fold)

====

Recorded IC50 values for a group of compounds are listed next.
# Target Of Assay: Human PKMYT1 (Homo sapiens, UniProt Q99640)
# Construct: Human PKMYT1 75-362 was cloned as a TEV cleavable 6xHis fusion; 6xHis (TEV cleavable) (cleaved yes); made in house; host or cells: bacterial cells
# Sequence (Q99640 75-362): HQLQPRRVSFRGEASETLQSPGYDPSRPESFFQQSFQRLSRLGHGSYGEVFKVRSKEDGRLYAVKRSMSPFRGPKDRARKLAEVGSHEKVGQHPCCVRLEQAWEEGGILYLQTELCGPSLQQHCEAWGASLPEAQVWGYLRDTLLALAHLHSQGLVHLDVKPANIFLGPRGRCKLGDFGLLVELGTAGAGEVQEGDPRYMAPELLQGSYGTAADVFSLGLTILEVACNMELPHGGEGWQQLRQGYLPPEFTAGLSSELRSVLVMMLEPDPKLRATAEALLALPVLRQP
# Assay Method Text: PKMYT1 biochemical ADP-Glo enzymatic assay
# Experimental Setup: PKMYT1 kinase domain 15 nM; ADP-Glo; banded values
Where a name gives a salt, the structure may show the parent alone.
Measurement Label: IC50

1) Cc1ccc(O)c(C)c1NC(=O)c1cnc(Nc2cccc3c2OCCO3)s1 [BAA-529, TFA salt]: 50 to 1000 nM
2) Cc1ccc(O)c(C)c1NC(=O)c1cnc(Nc2ccn(C)n2)o1: 50 to 1000 nM
3) Cc1ccc(O)c(C)c1NC(=O)c1cnc(Nc2cc(C)n(C(C)C(=O)N3CCN(C)CC3)n2)s1 (stereo not drawn): 50 to 1000 nM
4) CCN(CC)C(=O)C(CO)n1cc(C)c(Nc2ncc(C(=O)Nc3c(C)ccc(O)c3C)s2)n1 (stereo not drawn): < 50 nM
5) COCCN(CCOC)C(=O)Cn1cc(C)c(Nc2ncc(C(=O)Nc3c(C)ccc(O)c3C)s2)n1: < 50 nM
6) CCN(C)C(=O)Cn1cc(C)c(Nc2ncc(C(=O)Nc3c(C)ccc(O)c3C)s2)n1: < 50 nM
7) Cc1ccc(O)c(C)c1NC(=O)c1cnc(Nc2nn(CC(=O)N3CCCC3)cc2Cl)s1: < 50 nM
8) Cc1ccc(O)c(C)c1NC(=O)c1cnc(Nc2ccn(C(C)C(=O)N3CCN(C)CC3)n2)s1 (stereo not drawn): < 50 nM
9) CCN(CCO)C(=O)Cn1cc(C)c(Nc2ncc(C(=O)Nc3c(C)ccc(O)c3C)s2)n1: < 50 nM
10) Cc1cccc(Nc2ncc(C(=O)Nc3c(C)ccc(O)c3C)s2)n1: < 50 nM
11) Cc1ccc(O)c(C)c1NC(=O)c1cnc(Nc2ncccc2F)s1: < 50 nM
12) Cn1cc(Br)c(Nc2ncc(C(=O)Nc3c(F)ccc(O)c3Cl)s2)n1: < 50 nM
13) Cc1ccc(O)c(C)c1NC(=O)c1cnc(Nc2ccc3ccncc3n2)s1: < 50 nM
14) Cc1ccc(O)c(C)c1NC(=O)c1cnc(Nc2cc(N3CCNCC3)ncn2)s1: < 50 nM
15) COc1c(Cl)ncnc1Nc1ncc(C(=O)Nc2c(C)ccc(O)c2C)s1: < 50 nM
16) Cc1c(O)ccc(Cl)c1NC(=O)c1cnc(Nc2ccn(C)n2)s1: 50 to 1000 nM
17) Cc1cn(CC(=O)N2CCC(C(F)(F)F)C2)nc1Nc1ncc(C(=O)Nc2c(C)ccc(O)c2C)s1 (stereo not drawn): < 50 nM
18) CCCn1nc(Nc2ncc(C(=O)Nc3c(C)ccc(O)c3C)s2)c2ccccc21: 50 to 1000 nM
